System: HepG2-ACTB-RAB5A
procedure-summary: phenotypically active (imaging signature differs from DMSO and reproducible) at any of 0.3-9 uM (binary (1 = active, 0 = inactive)); higher = active
run-parameters: treatment time: 24 h
Structures can show the parent of a compound that is named as a salt.
Labels: active, inactive

| compound | class-assignment |
| --- | --- |
| Cc1ccc(Nc2nccc(N(C)c3ccc4c(C)n(C)nc4c3)n2)cc1S(N)(=O)=O | inactive |
| O=C1/C(=C\c2ccncc2)CCC/C1=C\c1ccncc1 | active |
| COc1cc2nc(N3CCN(C(=O)C4COc5ccccc5O4)CC3)nc(N)c2cc1OC (centres undefined) | active |
| C/C=C1/[C@H]2C=C(C)C[C@]1(N)c1ccc(=O)[nH]c1C2 | inactive |
| CO[C@H]1C=CO[C@@]2(C)Oc3c(C)c(O)c4c(O)c(c5c(nc6cc(C)ccn65)c4c3C2=O)NC(=O)C(C)=CC=C[C@H](C)[C@H](O)[C@@H](C)[C@@H](O)[C@@H](C)[C@H](OC(C)=O)[C@@H]1C | inactive |
| COc1ccc(CCN(C)CCCN2CCc3cc(OC)c(OC)cc3CC2=O)cc1OC | inactive |
| C[C@H]1[C@H](C)CC[C@]2(C(=O)O)CC[C@]3(C)C(=CC[C@@H]4[C@@]5(C)CC[C@H](O)C(C)(C)[C@@H]5CC[C@]43C)[C@H]12 | inactive |
| CSc1ccc(C(=O)c2[nH]c(=O)[nH]c2C)cc1 | inactive |
| CN1CCN(c2ccc(-c3cccc(CN4CCOCC4)c3)cc2NC(=O)c2c[nH]c(=O)cc2C(F)(F)F)CC1 | inactive |
| Cc1noc(C)c1-c1ccc2c(c1)nc(CCc1ccc(OCCCN(C)C)cc1)n2CCN1CCOCC1 | active |
| O=C(Nc1ccncc1)c1cc([N+](=O)[O-])ccc1Cl | active |
| O=C(Nc1cccnn1)N1CCN(c2nccc(-c3ccc(F)c(F)c3)n2)CC1 | inactive |
| O=C1NCCCc2c1oc1ccc(O)cc21 | inactive |
| O=c1cc(-c2ccc(O)cc2)oc2c(C3O[C@H](CO)[C@@H](O)[C@H](O)[C@H]3O)c(O)cc(O)c12 (some centres undefined) | inactive |
| COc1nc(N)nc2c1ncn2[C@@H]1O[C@H](CO)[C@@H](O)[C@@H]1O | inactive |
| CCCCc1nc(Cl)c(CO)n1Cc1ccc(-c2ccccc2-c2nnn[nH]2)cc1 | inactive |
| Cc1ccc(/C(=C/CN2CCCC2)c2cccc(/C=C/C(=O)O)n2)cc1 | active |
| CC1(C)CCC(c2ccc(Cl)cc2)=C(CN2CCN(c3ccc(C(=O)NS(=O)(=O)c4ccc(N[C@H](CCN5CCOCC5)CSc5ccccc5)c(S(=O)(=O)C(F)(F)F)c4)cc3)CC2)C1 | inactive |
| COc1cc2c(cc1OC)-c1c/c(=N/c3c(C)cc(C)cc3C)n(C)c(=O)n1CC2 [Trequinsin hydrochloride] | active |
